experiment: Selectivity ratio of IC50 for p38alpha to IC50 for c-kit
ATTRIBUTE MEASURED: Ratio IC50

Guide cases for Ratio IC50, answers given:
SMILES: Cc1ccc(C(=O)Nc2cccc(C(F)(F)F)c2)cc1C(=O)Nc1cnc(N)nc1
ATTRIBUTE MEASURED: Ratio IC50
QUANTITATIVE READOUT: 12

SMILES: Cc1ccc(C(=O)Nc2cccc(C(F)(F)F)c2)cc1NC(=O)c1cncnc1
ATTRIBUTE MEASURED: Ratio IC50
QUANTITATIVE READOUT: 4

SMILES: Cc1ccc(C(=O)NCCC2CCCC2)cc1C(=O)Nc1ccc(N)nc1
ATTRIBUTE MEASURED: Ratio IC50
QUANTITATIVE READOUT: 13

(1) CC(=O)Nc1ccc(NC(=O)c2cc(C(=O)Nc3cccc(C(F)(F)F)c3)ccc2C)cn1
(2) Cc1ccc(C(=O)NCCCC2CCCCC2)cc1C(=O)Nc1ccc(N)nc1
(3) Cc1ccc(C(=O)Nc2cccc(C(F)(F)F)c2)cc1C(=O)Nc1ccc(N)nc1
(4) Cc1ccc(C(=O)Nc2cccc(C(F)(F)F)c2)cc1C(=O)Nc1cccnc1
(5) Cc1ccc(C(=O)Nc2cccc(C(F)(F)F)c2)cc1C(=O)Nc1cncnc1
Prompt: Please produce an ascending ranking of these compounds based on Ratio IC50. Put the labels in the requested order and write them down.
Completion: 3, 2, 4, 1, 5

(a) CC(=O)Nc1ncc(NC(=O)c2cc(C(=O)Nc3cccc(C(F)(F)F)c3)ccc2C)cn1
(b) Cc1ccc(C(=O)NCCC2CCCCC2)cc1C(=O)Nc1ccc(N)nc1
Prompt: Between a and b , which one shows the smaller Ratio IC50 number? Use the label to indicate which entry you chose.
Completion: b

====

Entries and their microsomal CLint at 1 µM
assay: Metabolic stability in human liver microsomes assessed as intrinsic clearance at 1 uM; type: ADME, Microsome; details: read-out: Stability

SMILES: Cc1ccc(C(=O)Nc2cccc(C(F)(F)F)c2)cc1C(=O)Nc1ccc(N)nc1
microsomal CLint at 1 µM: < 100 µL/min/mg

Prompt: Please report the recorded microsomal CLint at 1 µM for Cc1ccc(C(=O)Nc2cccc(C(F)(F)F)c2)cc1C(=O)Nc1cncnc1 .
Completion: 38 µL/min/mg

Prompt: Please report the recorded microsomal CLint at 1 µM for Cc1ccc(NC(=O)c2cccc(C(F)(F)F)c2)cc1C(=O)Nc1cncnc1 .
Completion: < 50 µL/min/mg

Prompt: Please report the recorded microsomal CLint at 1 µM for Cc1ccc(C(=O)NCCC2CCCC2)cc1C(=O)Nc1ccc(N)nc1 .
Completion: < 14 µL/min/mg

Prompt: Please report the recorded microsomal CLint at 1 µM for CC(=O)Nc1ccc(NC(=O)c2cc(C(=O)Nc3cccc(C(F)(F)F)c3)ccc2C)cn1 .
Completion: < 100 µL/min/mg

====

assay: Clearance in Sprague-Dawley rat at 2 mg/kg, iv; assay type: ADME, organism-based; parameters: dose 2 mg/kg, route intravenous; details: in vivo
ATTRIBUTE MEASURED: clearance (mL/min/kg)

SMILES: Cc1ccc(NC(=O)c2cccc(C(F)(F)F)c2)cc1C(=O)Nc1cncnc1
clearance (mL/min/kg): 27.1
--
SMILES: Cc1ccc(C(=O)Nc2cccc(C(F)(F)F)c2)cc1C(=O)Nc1cncnc1
clearance (mL/min/kg): 28

(A) Cc1ccc(C(=O)NCCC2CCCC2)cc1C(=O)Nc1ccc(N)nc1
(B) Cc1ccc(C(=O)Nc2cccc(C(F)(F)F)c2)cc1C(=O)Nc1ccc(N)nc1
Prompt: Between A and B , which one shows the smaller clearance number? Use the label to indicate which entry you chose.
Completion: B
